- method-summary: in vitro
- condition-info: African green monkey
readout-label: CC50 (µM)
Give the quantity in µM, number only.

Answer with reported CC50 of "Cc1cccc(C)c1OCC(=O)N[C@@H](Cc1ccccc1)[C@@H](O)C[C@H](Cc1ccccc1)NC(=O)[C@H](C(C)C)N1CCCNC1=O"
80.8

====

- Test system: SARS-CoV-2
- method-summary: microbe, parasite or virus in culture
- Type: cell-based
- condition-info: Severe acute respiratory syndrome coronavirus 2, Huh-7, 48 h
Entries and their pIC50 values follow.
Units for pIC50: none; it is -log10 of a concentration expressed in mol/L.

// worked examples, pIC50 included
structure-notation: C#CC[C@@H](C(=O)N[C@H](/C=C/C(=O)OCC)C[C@@H]1CCNC1=O)n1cccc(NC(=O)c2cc(C)on2)c1=O
pIC50: 4.03

structure-notation: CC(C)c1nc(CN(C)C(=O)N[C@H](C(=O)N[C@@H](Cc2ccccc2)C[C@H](O)[C@H](Cc2ccccc2)NC(=O)OCc2cncs2)C(C)C)cs1
pIC50: 4.93

structure-notation: CCOC(=O)/C=C/[C@H](C[C@@H]1CCNC1=O)NC(=O)[C@@H](CC(=O)[C@@H](NC(=O)c1cc(C)on1)C(C)C)Cc1ccc(F)cc1
pIC50: 4.60

Specify pIC50 for "Cc1cccc(C)c1OCC(=O)N[C@@H](Cc1ccccc1)[C@@H](O)C[C@H](Cc1ccccc1)NC(=O)[C@H](C(C)C)N1CCCNC1=O" and stop.
5.11
